Measured values drawn from patent US20160304556A1 for this set.

Below is a list of entries, each paired with its recorded IC50 value.
Tested target: IDH1 R132C (Homo sapiens, UniProt O75874, R132C)
Sequence (O75874 whole entry R132C): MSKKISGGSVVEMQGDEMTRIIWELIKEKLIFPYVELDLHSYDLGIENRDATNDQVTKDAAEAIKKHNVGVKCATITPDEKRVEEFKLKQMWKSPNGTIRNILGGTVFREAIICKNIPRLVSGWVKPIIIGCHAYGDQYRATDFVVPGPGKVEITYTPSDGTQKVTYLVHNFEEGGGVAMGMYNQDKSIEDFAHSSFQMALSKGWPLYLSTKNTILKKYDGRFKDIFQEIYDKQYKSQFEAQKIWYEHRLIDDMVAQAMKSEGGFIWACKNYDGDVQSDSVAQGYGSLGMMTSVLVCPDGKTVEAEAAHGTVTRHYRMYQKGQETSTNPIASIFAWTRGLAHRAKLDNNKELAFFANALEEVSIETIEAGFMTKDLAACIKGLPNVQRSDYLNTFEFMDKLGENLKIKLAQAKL
Method: In vitro NADPH depletion assay for IDH1m R132C inhibitors
Run conditions: enzyme, diaphorase/resazurin readout, read-out: IDH R132C IC50
Measure name: IC50

# Molecule, Tested target, Result
rows = [
    ("COC(=O)N(C)CC(=O)N(c1cccc(F)c1)C(C(=O)NC1CC(F)(F)C1)c1ccccc1Cl (centres unmarked)", "IDH1 R132C (Homo sapiens, UniProt O75874, R132C)", "100 to 500 nM"),
    ("O=C(NC1CC(F)(F)C1)[C@@H](c1ccccc1Cl)N(C(=O)[C@H](CO)Nc1ncccn1)c1cccc(F)c1", "IDH1 R132C (Homo sapiens, UniProt O75874, R132C)", "≤ 100 nM"),
    ("COC(=O)N1CC[C@H](O)[C@H]1C(=O)N(c1cccc(F)c1)[C@H](C(=O)NC1CC(F)(F)C1)c1ccccc1Cl", "IDH1 R132C (Homo sapiens, UniProt O75874, R132C)", "100 to 500 nM"),
    ("COC(=O)NCC(=O)N(c1cccc(F)c1)[C@H](C(=O)N[C@H]1CCCC(F)(F)C1)c1ccccc1Cl (single isomer, unassigned)", "IDH1 R132C (Homo sapiens, UniProt O75874, R132C)", "100 to 500 nM"),
    ("O=C1C[C@@H](C(=O)N(c2cccc(F)c2)[C@H](C(=O)NC2CC(F)(F)C2)c2ccccc2Cl)N(c2ncccn2)C1", "IDH1 R132C (Homo sapiens, UniProt O75874, R132C)", "≤ 100 nM"),
    ("C[C@H]1CC[C@@H](C(=O)N(c2cccc(F)c2)[C@H](C(=O)NC2CC(F)(F)C2)c2ccccc2Cl)N1c1ncccn1", "IDH1 R132C (Homo sapiens, UniProt O75874, R132C)", "≤ 100 nM"),
    ("COC(=O)NCC(=O)N(c1cccc(F)c1)C(C(=O)NC1CC(F)(F)C1)c1c(Cl)cccc1Cl (centres unmarked)", "IDH1 R132C (Homo sapiens, UniProt O75874, R132C)", "100 to 500 nM"),
    ("COC(=O)N[C@@H](CO)C(=O)N(c1cccc(F)c1)[C@H](C(=O)NC1CCCCC1)c1ccccc1Cl", "IDH1 R132C (Homo sapiens, UniProt O75874, R132C)", "≤ 100 nM"),
    ("O=C(NC1CC(F)(F)C1)[C@H](c1ccccc1Cl)N(C(=O)[C@@H]1CCCN1c1ncccn1)c1cccc(F)c1", "IDH1 R132C (Homo sapiens, UniProt O75874, R132C)", "≤ 100 nM"),
    ("CCOC(=O)NCC(=O)N(c1cccc(F)c1)C(C(=O)NC1CC(F)(F)C1)c1ccccc1Cl (centres unmarked)", "IDH1 R132C (Homo sapiens, UniProt O75874, R132C)", "100 to 500 nM"),
    ("O=C(NC1CC(F)(F)C1)[C@H](c1ccccc1Cl)N(C(=O)[C@@H]1CCN1c1ncccn1)c1cccc(F)c1 [Compound 103]", "IDH1 R132C (Homo sapiens, UniProt O75874, R132C)", "500 to 1000 nM"),
    ("Cc1nc(Cl)c(Cl)n1CC(=O)N(c1cccc(F)c1)C(C(=O)NC1CC(F)(F)C1)c1ccccc1Cl (centres unmarked)", "IDH1 R132C (Homo sapiens, UniProt O75874, R132C)", "≤ 100 nM"),
    ("COC(=O)N1CCOC[C@H]1C(=O)N(c1cccc(F)c1)[C@H](C(=O)NC1CCCCC1)c1ccccc1C", "IDH1 R132C (Homo sapiens, UniProt O75874, R132C)", "≤ 100 nM"),
    ("O=C(NC1CC(F)(F)C1)[C@H](c1ccccc1Cl)N(C(=O)[C@H](CO)Nc1ncccn1)c1cccc(F)c1", "IDH1 R132C (Homo sapiens, UniProt O75874, R132C)", "≤ 100 nM"),
]

====

Reported pIC50 values for a set of molecules
Tested target: IDH1 R132H (Homo sapiens, UniProt O75874, R132H)
Sequence (O75874 whole entry R132H): as the sequence (O75874 whole entry R132C) above, with C132H counted along it
Method: In vitro NADPH depletion assay for IDH1m R132H inhibitors
Run conditions: enzyme, diaphorase/resazurin readout, read-out: IDH R132H IC50
pIC50: −log10 of the molar value.
Measure name: pIC50

# Molecule, Measure name, Result
rows = [
    ("COC(=O)N[C@@H](CO)C(=O)N(c1cccc(F)c1)[C@H](C(=O)NC1CCCCC1)c1ccccc1Cl", "pIC50", "≥ 7.00"),
    ("COC(=O)NCC(=O)N(c1cccc(F)c1)[C@H](C(=O)N[C@@H]1CCCCC1(F)F)c1ccccc1Cl", "pIC50", "6.30 to 7.00"),
    ("Cc1ccccc1C(C(=O)NC1CCC(F)(F)CC1)N(C(=O)Cn1ccnc1C(F)(F)F)c1cccc(F)c1 (centres unmarked)", "pIC50", "6.30 to 7.00"),
    ("COC(=O)N1C[C@H](OCCN(C)C)C[C@H]1C(=O)N(c1cccc(F)c1)[C@H](C(=O)NC1CC(F)(F)C1)c1ccccc1Cl", "pIC50", "6.00 to 6.30"),
    ("O=C(NC1CC(F)(F)C1)[C@H](c1ccccc1Cl)N(C(=O)[C@H](CO)Nc1ncccn1)c1cccc(F)c1", "pIC50", "≥ 7.00"),
    ("O=C(NC1CCCCC1)C(c1ccccc1Cl)N(C(=O)c1cc2ccccc2[nH]1)c1cccc(F)c1 (centres unmarked)", "pIC50", "6.00 to 6.30"),
    ("COC(=O)N1CCC[C@H]1C(=O)N(c1cccc(F)c1)[C@H](C(=O)NC1CC(F)(F)C1)c1c(Cl)cccc1Cl", "pIC50", "6.30 to 7.00"),
    ("O=C(NC1CCC(F)(F)CC1)C(c1ccccc1Cl)N(C(=O)Cn1cnc(Cl)c1Cl)c1cccc(F)c1 (centres unmarked)", "pIC50", "≥ 7.00"),
    ("CC(C)OC(=O)NCC(=O)N(c1cccc(F)c1)C(C(=O)NC1CC(F)(F)C1)c1ccccc1Cl (centres unmarked)", "pIC50", "6.30 to 7.00"),
    ("O=C(NC1CCC(F)(F)CC1)C(c1ccccc1Cl)N(C(=O)CNc1ncccc1F)c1cccc(F)c1 (centres unmarked)", "pIC50", "≥ 7.00"),
    ("COC(=O)N1CCNC[C@H]1C(=O)N(c1cccc(F)c1)[C@H](C(=O)NC1CC(F)(F)C1)c1ccccc1Cl", "pIC50", "6.30 to 7.00"),
    ("COC(=O)NCC(=O)N(c1cccc(F)c1)[C@H](C(=O)N[C@H]1CCC(F)(F)C1)c1ccccc1Cl", "pIC50", "6.30 to 7.00"),
    ("COC(=O)N(C)[C@@H](C)C(=O)N(c1cccc(F)c1)[C@H](C(=O)NC1CCCCC1)c1ccccc1C", "pIC50", "≥ 7.00"),
    ("Cc1nccn1CC(=O)N(c1cccc(-c2nnco2)c1)C(C(=O)NC1CCCCC1)c1ccccc1Cl (centres unmarked)", "pIC50", "6.30 to 7.00"),
]

====

List of IC50 values.
Tested target: IDH1 R132H (Homo sapiens, UniProt O75874, R132H)
Method: In vitro NADPH depletion assay for IDH1m R132H inhibitors
Run conditions: enzyme, diaphorase/resazurin readout, read-out: IDH R132H IC50

# Molecule, Tested target, IC50
records = [
    ("O=C(NC1CC(F)(F)C1)C(c1ccccc1Cl)N(C(=O)[C@@H]1CCCc2nccn21)c1cccc(F)c1 (stereo in doubt)", "IDH1 R132H (Homo sapiens, UniProt O75874, R132H)", "≤ 0.1 µM"),
    ("O=C(NC1CC(F)(F)C1)[C@H](c1ccccc1Cl)N(C(=O)[C@@H]1CCCN1c1ncccn1)c1cccc(F)c1", "IDH1 R132H (Homo sapiens, UniProt O75874, R132H)", "≤ 0.1 µM"),
    ("COC(=O)N1CCOC[C@H]1C(=O)N(c1cccc(F)c1)[C@H](C(=O)NC1CC(F)(F)C1)c1ccccc1Cl", "IDH1 R132H (Homo sapiens, UniProt O75874, R132H)", "≤ 0.1 µM"),
    ("O=C(NC1CC(F)(F)C1)C(c1ccccc1Cl)N(C(=O)c1ccnn1-c1ncccn1)c1cccc(F)c1 (stereo not shown)", "IDH1 R132H (Homo sapiens, UniProt O75874, R132H)", "0.5 to 1 µM"),
]

====

Tested target: IDH1 R132H (Homo sapiens, UniProt O75874, R132H)
Method: In vitro NADPH depletion assay for IDH1m R132H inhibitors
Run conditions: enzyme, diaphorase/resazurin readout, read-out: IDH R132H IC50
pIC50: −log10 of the molar value.
// values below are reported pIC50
Measure name: pIC50

# Compound, Measure name, Result
records = [
    ("COC(=O)NCC(=O)N(c1cccc(F)c1)C(C(=O)NC1CC(F)(F)C1)c1c(F)cccc1Cl (centres unmarked) [Compound 77]", "pIC50", "6.30 to 7.00"),
    ("COC(=O)N1CCC[C@H]1C(=O)N(c1cccc(S(N)(=O)=O)c1)[C@H](C(=O)NC1CCC(F)(F)CC1)c1ccccc1Cl [Compound 57]", "pIC50", "6.30 to 7.00"),
    ("CC(C)(C)OC(=O)N1CCC[C@H]1C(=O)N(c1cccc(F)c1)[C@H](C(=O)NC1CCC(F)(F)CC1)c1ccccc1Cl [Compound 44]", "pIC50", "6.00 to 6.30"),
    ("COC(=O)N1C[C@H](O)C[C@H]1C(=O)N(c1cccc(F)c1)[C@H](C(=O)NC1CC(F)(F)C1)c1ccccc1Cl [Compound 51]", "pIC50", "≥ 7.00"),
    ("COC(=O)N1CCN(C(C)=O)C[C@H]1C(=O)N(c1cccc(F)c1)[C@@H](C(=O)NC1CC(F)(F)C1)c1ccccc1Cl [Compound 67]", "pIC50", "6.30 to 7.00"),
    ("O=C1C[C@@H](C(=O)N(c2cccc(F)c2)[C@H](C(=O)NC2CC(F)(F)C2)c2ccccc2Cl)N(c2ncccn2)C1 [Compound 107]", "pIC50", "≥ 7.00"),
    ("O=C(NC1CCCCC1)C(c1ccccc1Cl)N(C(=O)C1Cc2ccccc2N1)c1cccc(F)c1 (centres unmarked) [Compound 32]", "pIC50", "6.30 to 7.00"),
    ("O=C(NC1CCC(F)(F)CC1)C(c1ccccc1Cl)N(C(=O)Cn1cnc(Cl)c1Cl)c1ccc(F)c(F)c1 (centres unmarked) [Compound 38]", "pIC50", "6.30 to 7.00"),
    ("Cc1ccccc1C(C(=O)NC1CC(F)(F)C1)N(C(=O)CNc1ncccc1F)c1cccc(F)c1 (centres unmarked) [Compound 17]", "pIC50", "6.30 to 7.00"),
    ("O=C(NC1CCC(F)(F)CC1)C(c1ccccc1Cl)N(C(=O)Cn1cnnn1)c1cccc(F)c1 (centres unmarked) [Compound 49]", "pIC50", "6.30 to 7.00"),
    ("COC(=O)N[C@@H](CO)C(=O)N(c1cccc(F)c1)C(C(=O)NC1CCC(F)(F)CC1)c1ccccc1Cl (some centres unmarked) [Compound 101]", "pIC50", "6.30 to 7.00"),
    ("C[C@H]1CC[C@@H](C(=O)N(c2cccc(F)c2)[C@H](C(=O)NC2CCC(F)(F)CC2)c2ccccc2Cl)N1c1ncccn1 [Compound 111]", "pIC50", "≥ 7.00"),
    ("O=C(NC1CC(F)(F)C1)C(c1ccccc1Cl)N(C(=O)c1cccc2nccn12)c1cccc(F)c1 (centres unmarked) [Compound 40]", "pIC50", "6.00 to 6.30"),
    ("N#Cc1ccccc1C(C(=O)NC1CCCCC1)N(C(=O)Cn1cnc(Cl)c1Cl)c1cccc(F)c1 (centres unmarked) [Compound 28]", "pIC50", "6.30 to 7.00"),
]
